Experimental protocol: NCI Yeast Anticancer Drug Screen. Data for the bub3 strain (AID 167)
Condition context: S. cerevisiae bub3 mutant strain, at 50.0 µM (retest, dose inferred, filed as 5.0), hits give high values
Compounds without any hit were thinned out: in the full panel of roughly 79,000, 15% have a hit.
Classification field: enter true for growth inhibition values not below 80%, false for values below it.

INSERT INTO measurements (molecule, discrete_label) VALUES
  ('COc1cc(OC)c(C2CC(C)(OC)Oc3cc4c(cc32)OCO4)c(OC)c1 (configuration not stated)', 'false'),
  ('Cc1cc(C)c(N2C(=O)C=CC2=O)c(C)c1', 'true'),
  ('CCN1CCC(O)(/C=C/c2cccc(C)c2)C(C(=O)/C=C/c2cccc(C)c2)C1 (configuration not stated)', 'true'),
  ('COc1ccc2c(C)cc(N/N=C(\C)c3ccccn3)nc2c1', 'false'),
  ('O=C(Cc1nc2ccc([N+](=O)[O-])cc2[nH]c1=O)C(=O)Nc1cc(Cl)c(Cl)cc1Cl', 'false'),
  ('CCN1/C(=C/C(C)=C/c2sc3ccccc3[n+]2CC)Sc2ccccc21', 'true'),
  ('Cc1ccc(-c2c(N)[n+]([O-])c3ccccc3[n+]2[O-])cc1', 'true'),
  ('CCCCc1ccc(Nc2nc(N)c3[nH]cnc3n2)cc1', 'false'),
  ('O=C(O)C(Cc1ccccc1)N=Cc1ccc(O)cc1 (configuration not stated)', 'true'),
  ('CC(C)(C)c1cc2c3c(c1)Oc1cc(C(C)(C)C)cc4c1C3(O)c1c(cc(C(C)(C)C)cc1O4)O2', 'true'),
  ('[C](#[C][Sn]([c]1ccccc1)([c]1ccccc1)[c]1ccccc1)[Sn]([c]1ccccc1)([c]1ccccc1)[c]1ccccc1', 'true'),
  ('Cc1ccc(S(=O)/C=C/S(=O)(=O)c2ccc(C)cc2)cc1 (configuration not stated)', 'true'),
  ('Cc1cc(O)cc2c1c(=O)c1ccccc1n2C', 'false'),
  ('CC(C)C[NH-].CC(C)C[NH-].[Cl][Pt+2]([Cl])([Cl])[Cl]', 'true'),
  ('CCCCCCCCCCCCCCC(C(=O)O)S(=O)(=O)O (configuration not stated)', 'false'),
  ('CC(=O)O[C@@H]1CC(C)C2CC2C2=C(C(O)OC2O)[C@@H]1C(C)CCC=C(C)C (some centres not stated)', 'true'),
  ('CC(C)CCCC(C)C1CCC2(C)C3=CCC4C(C)(CCC(O)C4(C)C)C3=CCC12C (configuration not stated)', 'true'),
  ('O=C1c2ccc(O)c(O)c2C(=O)c2c(O)ccc(O)c21', 'true'),
  ('c1ccc(C2=NC(=c3ccc(=C4N=C(c5ccccc5)C(c5ccccc5)=N4)cc3)N=C2c2ccccc2)cc1', 'false'),
  ('O=C1CCCC1C(=O)OC1CCCC1 (configuration not stated)', 'false'),
  ('CCOC(=O)c1ccc(NC(=O)CCl)cc1', 'true'),
  ('O=C(/C=C(/Nc1ccccc1)C(=O)c1ccccc1)c1ccccc1', 'false'),
  ('N=c1scc(-c2ccccc2)n1/N=C/c1cccnc1', 'true'),
  ('CC(C)=CCC/C(C)=C/COc1ccc(/C=C2/C(=O)N(O)[C@@H](C)C(=O)N2O)cc1', 'true'),
  ('CCOC(=O)C(Cc1ccc(O)c(C=O)c1)NC(C)=O (configuration not stated)', 'false'),
  ('N#CC(Cl)CS(=O)(=O)c1ccccc1 (configuration not stated)', 'true'),
  ('COc1ccc2c(c1)CCC1OC(c3cccnc3)OC21 (configuration not stated)', 'false'),
  ('Cc1ccc(C(=O)/C=C/c2ccco2)c(C)c1', 'false'),
  ('Oc1cccc2cc(Br)cnc12', 'true'),
  ('N#CCc1ccc2c(c1)Sc1ccccc1O2', 'false'),
  ('Oc1ccc(C2SC(c3ccc(O)cc3)SC(c3ccc(O)cc3)S2)cc1 (configuration not stated)', 'true'),
  ('Nc1ccccc1/C=C1/Sc2cc[nH]c2C1=O', 'false'),
  ('CC(CN(C)C)C(/C=C/c1ccccc1)=N\NC(=O)c1ccccc1 (configuration not stated)', 'false'),
  ('O=C1C(Cl)=CC(=NCl)C=C1Cl', 'true'),
  ('COc1cccc(/C=N/N(C)C)c1O', 'false'),
  ('CC(NC(=O)OCc1ccccc1)C(=O)NC(Cc1ccccc1)C(=O)OCc1ccccc1 (configuration not stated)', 'false'),
  ('COc1ccc2oc(-c3ccc(OC)c(OC)c3OC)cc(=O)c2c1', 'false'),
  ('Nc1ccc2[nH]c3ccccc3c2c1', 'false'),
  ('CC1(c2ccc(Cl)cc2)OC(=O)c2c1ccc1ccccc21 (configuration not stated)', 'false'),
  ('O=C(Nc1ccccc1)OC1CCCC1', 'true'),
  ('CN(C)CCCCN1c2ccccc2Sc2ccc(C(=O)c3ccccc3)cc21', 'false'),
  ('N=C(N)SCc1nc(-c2ccc(Cl)cc2)no1', 'false'),
  ('CN(C)c1ccc(C=Nc2cnc3ccccc3c2)cc1', 'false'),
  ('OC(CCN1CCCCC1)(Cc1ccccc1)c1cccc(Cl)c1 (configuration not stated)', 'false'),
  ('CC[N+](C)(CC)CCC(=O)/C=C/c1ccccc1', 'false'),
  ('COc1cc(C2=NCCO2)cc(OC)c1OC', 'false');

----------
Experimental protocol: NCI Yeast Anticancer Drug Screen. Data for the bub3 strain (AID 167)
Condition context: S. cerevisiae bub3 mutant strain, at 5.0 µM (retest, dose inferred, filed as 0.5)
Compounds without any hit were thinned out: in the full panel of roughly 79,000, 15% have a hit. Calls of active or inactive are those of the source. Cut-off read from the data, not from the text of the source: active = growth inhibition above about 70%; inactive = the rest.
Possible outcomes: 1 = active, 0 = inactive

INSERT INTO measurements (compound, discrete_label) VALUES
  ('Cc1[nH]nc(C(F)(F)F)c1N=NN1CCOCC1', 0),
  ('CCCCCC(CN(C)C)C(=O)/C=C/c1ccc(Cl)cc1 (stereo not given)', 0),
  ('C[Si](C)(C)CN1C(=O)c2ccccc2C1(O)c1ccccc1 (stereo not given)', 0),
  ('Oc1c(N(Cc2ccccc2)Cc2ccccc2)ccc2cccnc12', 0),
  ('OCC(O)C(O)C(O)C(O)c1cnn(-c2ccccc2)n1 (stereo not given)', 0),
  ('N=Nc1c(OC(=O)Nc2ccccc2)[nH]c2ccccc12', 0),
  ('C=C1C[C@H](O)[C@H]2C(C[Se]c3ccccc3)C(=O)O[C@@H]2[C@H]2[C@H](C)C(O)C[C@@H]12 (stereo not given in full)', 0),
  ('Clc1ccc(OCCC(Cn2ccnc2)c2ccc(Cl)cc2Cl)c(Cl)c1 (stereo not given)', 1),
  ('CC/C(=C(/CC)c1ccc(O)cc1)c1ccc([O-])cc1.CC/C(=C(/CC)c1ccc(O)cc1)c1ccc([O-])cc1.O=C([CH-]C(=O)c1ccccc1)c1ccccc1.O=C([CH-]C(=O)c1ccccc1)c1ccccc1.[Ti+4]', 1),
  ('CC1=C(C)CC2C(=O)C(C(O)CC(C)C)=CC(=O)C2C1 (stereo not given)', 0),
  ('CCOC(=O)c1ccc(N=Cc2cc(Cl)cc(Cl)c2O)cc1', 0),
  ('COc1nc(NC2OCC(O)C(O)C2O)c(Cl)c(=O)n1C (stereo not given)', 0),
  ('CCOc1ccccc1/C=C1\C=Nc2ccccc21', 0),
  ('Oc1ccccc1C1CCCCC1', 0),
  ('CCc1c(-c2ccccc2)c(CN2CCCCC2)c2ccccn12', 0),
  ('Cc1[nH]nc(C(=O)OC(C)C)c1N=NN(C)C', 0),
  ('Cn1c(=S)c2[nH]c(=S)[nH]c2n(C)c1=O', 1),
  ('COC1=CC(=O)c2c(O)c3c(c(O)c2C1=O)OC1(Oc2c(cc4cc(C)oc(=O)c4c2O)CC1O)C3O (stereo not given)', 1),
  ('O=c1[nH]c2ccccc2c2oc3ccccc3c12', 0),
  ('CC=CCOc1cc(NC(=S)OC(C)C)ccc1Cl (mixture of isomers)', 0),
  ('O=C1NC(=O)C(c2ccccc2)(c2ccccc2)C2CC3c4[nH]c5ccccc5c4CCN3CC12 (stereo not given)', 0),
  ('O/N=C(/CN1CCN(c2ccccc2)CC1)c1ccccc1', 0),
  ('CCCCCCCCCCCC(=O)OCCCCC', 0),
  ('CCc1cc(C)cc(NC(=O)OC2CCCCC2C)c1 (stereo not given)', 0),
  ('COc1ccc(C2=C(Cl)C(=O)N(c3ccc(Cl)cc3)C(=O)C2(Cl)Cl)cc1', 0),
  ('CN(C)c1ccc(/C=C2/Oc3ccc(Cl)cc3C2=O)cc1', 0),
  ('CC1(C)CC(=O)C2=C(C1)OC1=C(CC(C)(C)CC1=O)C2c1ccccc1[N+](=O)[O-] (stereo not given)', 0),
  ('CCN(CC)Cc1cc(Nc2c3ccccc3nc3c2[nH]c2ccccc23)ccc1O', 0),
  ('CCC(=O)OC1=C(Cl)C(=O)c2ccccc2C1=O', 0),
  ('C[n+]1c(/C=C/c2ccc(Cl)cc2)sc2ccccc21', 0),
  ('CCN(CC)CCCC(C)Nc1c2ccccc2nc2c(C)cc(Br)cc12 (stereo not given)', 0),
  ('CC(C)C[NH-].CC(C)C[NH-].[Cl][Pt+2]([Cl])([Cl])[Cl]', 1),
  ('Cc1ccc(NC(=O)Oc2ccc(C(C)(C)C)cc2Br)cc1NC(=O)Oc1ccc(C(C)(C)C)cc1Br', 0),
  ('O=C1C(=O)C(Cc2ccccc2)(c2ccccc2)C(=O)N1c1ccccc1 (stereo not given)', 0),
  ('CCCCCN=C(C)C(C)=NCCCCC', 0),
  ('CS(=O)(=O)C(c1nc2nnc(NC(=O)Nc3ccc(Cl)cc3)n2[nH]c1=O)c1nc2nnc(NC(=O)Nc3ccc(Cl)cc3)n2[nH]c1=O', 0),
  ('O=C(NC1CCN(Cc2ccccc2)CC1)c1cccc(I)c1', 0),
  ('[Cu+2].c1ccc2n[nH]nc2c1', 1),
  ('C1=C(c2ccccc2)CCc2c1ccc1ccccc21', 0),
  ('COc1ccc(CCC2(C)OCCC(C)O2)cc1 (stereo not given)', 0),
  ('CCOSc1ccccc1', 0),
  ('CCC(CC)COC(=O)c1cccnc1', 0),
  ('Cc1nn(C(=O)c2ccccc2O)c2c1C(c1ccco1)SC(N)=N2 (stereo not given)', 0),
  ('COC(=O)CC1C(=O)OCc2c1cc1n(c2=O)Cc2c-1nc1ccccc1c2OC (stereo not given)', 0),
  ('Cc1ccc(N2CCN(c3c(N)cncc3Br)CC2)cc1', 0);
